- SYSTEM TESTED: polypeptide HER2/ECD (human, UniProt P04626 23-646)
- ASSAY SUMMARY: ELISA, IgG on immobilized HER2/ECD
VALUE KIND: EC50 (ng/mL)
Dear colleague, please return just the value in ng/mL, with no unit written.

Inquiry: What does the record list as EC50 for M61 (antibody) MAELDIKITQSPASLSASVGETVTITCRASENIYSYLAWYQQKQGKSPQLLVYNAKTLAEGVPSRFSGSGSGTQFSLKINSLQPEDFGSYYCQHHYGTPYTFGGGTKLELKSSGGGGSGGGGGGSSRSSLEVQLQQSGAELVKPGASVKMSCKAFGYTFTTYPIEWMKQNHGKSLEWIGNFHPYNDDTKYNEKFKGKAKLTVEKSSSTVYLELSRLTSDDSAVYYCARRNDGYYGAMDYWGQGTSVTVSSAKTTAPSVTSAAAGAPVPYPDPLEPRAA ?
Reply text: 3.5

Provenance of the data: patent US20180009877A1
